Molecular target: human MCHR1 (Homo sapiens, UniProt Q99705)
Construct: expressed in transfected cells; host or cells: CHO dhfr- cells, clone #4
Sequence (Q99705 whole entry): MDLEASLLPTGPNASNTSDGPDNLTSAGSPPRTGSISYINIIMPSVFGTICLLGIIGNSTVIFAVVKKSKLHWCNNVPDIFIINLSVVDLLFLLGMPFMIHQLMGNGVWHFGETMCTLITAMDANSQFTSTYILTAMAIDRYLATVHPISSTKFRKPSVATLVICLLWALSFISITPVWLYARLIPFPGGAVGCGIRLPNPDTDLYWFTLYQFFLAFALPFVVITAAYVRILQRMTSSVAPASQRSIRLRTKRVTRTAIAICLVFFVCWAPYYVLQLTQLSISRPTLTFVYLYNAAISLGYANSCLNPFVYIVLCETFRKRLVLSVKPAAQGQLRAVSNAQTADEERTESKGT
Test: MCH receptor 1 antagonistic activity, Ca2+ mobilization assay
Type: cell-based
Details: CHO, test compound 0.1 μM; human MCHR1-expressing CHO cells (clone #4); ligand MCH(4-19) 2 nM; read-out: Inhibitory rate % (0.1 μM)
reported-property: inhibition at 0.1 µM
Could you give the number and then its unit, please?

Example entries and their recorded answers appear below.
[
  {
    "molecule": "Cc1c(C2CC2)nc2ccc(-n3ccc(OCc4ccsc4)cc3=O)cn12",
    "inhibition at 0.1 µM": "98%"
  },
  {
    "molecule": "Cn1c(C2CC2)nc2ccc(-n3ccc(OCc4ccc(Cl)o4)cc3=O)cc21",
    "inhibition at 0.1 µM": "104%"
  },
  {
    "molecule": "CCc1nc2ccc(-n3ccc(OCc4ccc(Cl)cc4)cc3=O)cc2n1C",
    "inhibition at 0.1 µM": "97%"
  }
]

Report inhibition at 0.1 µM for each item below.
1. Cc1c(C2CC2)nc2ccc(-n3ccc(OCc4ccc(C(F)F)s4)cc3=O)cn12
2. CCCc1nc2ccc(-n3ccc(OCc4ccc(F)cc4)cc3=O)cc2n1C
3. Cc1ncoc1-c1nc2ccc(-n3ccc(OCc4ccc(F)cc4)cc3=O)cc2n1C
4. CCc1nc2ccc(-n3ccc(OCc4csc(Cl)c4)cc3=O)cc2n1C
5. Cn1c(C2CC2)nc2ccc(-n3ccc(OCc4ccc(Cl)cc4)cc3=O)cc21
6. CC(=O)c1nc2ccc(-n3ccc(OCc4ccc(Cl)cc4)cc3=O)cc2n1C

Result:
1. 69%
2. 99%
3. 46%
4. 106%
5. 99%
6. 61%

Go through the list and state inhibition at 0.1 µM for each entry.
1. CCCc1nc2ccc(-n3ccc(OCc4ccc(Cl)cc4)cc3=O)cc2n1C
2. Cn1c(C2CC2)nc2ccc(-n3ccc(OCc4cccc(F)c4)cc3=O)cc21
3. CC1CC1c1nc2ccc(-n3ccc(OCc4ccc(F)cc4)cc3=O)cc2n1C (stereo not drawn)
4. Cc1nc2ccc(-n3ccc(OCc4cc(C(F)(F)F)cs4)cc3=O)cc2n1C

Result:
["63%", "58%", "100%", "100%"]

Please state inhibition at 0.1 µM for every molecule in the list that follows.
1. Cc1c(C2CC2)nc2ccc(-n3ccc(OCc4ccc(Cl)cc4)nc3=O)cn12
2. Cn1c(-c2cnco2)nc2ccc(-n3ccc(OCc4ccc(F)cc4)cc3=O)cc21
3. Cc1c(C2CC2)nc2ccc(-n3ccc(OCc4ccc(Cl)cc4)cc3=O)cn12
4. Cn1c(C2CC2)nc2ccc(-n3ccc(OCc4ccc(C(F)(F)F)s4)cc3=O)cc21

Result:
1: 35%; 2: 58%; 3: 99%; 4: 107%

Problem: Please report the recorded inhibition at 0.1 µM for Cn1c(C2CC2)nc2ccc(-n3ccc(OCc4coc(Br)c4)cc3=O)cc21 .
Result: 98%
